Molecular target: ALPK1 (Homo sapiens (Human))
Sequence (Q96QP1 whole entry): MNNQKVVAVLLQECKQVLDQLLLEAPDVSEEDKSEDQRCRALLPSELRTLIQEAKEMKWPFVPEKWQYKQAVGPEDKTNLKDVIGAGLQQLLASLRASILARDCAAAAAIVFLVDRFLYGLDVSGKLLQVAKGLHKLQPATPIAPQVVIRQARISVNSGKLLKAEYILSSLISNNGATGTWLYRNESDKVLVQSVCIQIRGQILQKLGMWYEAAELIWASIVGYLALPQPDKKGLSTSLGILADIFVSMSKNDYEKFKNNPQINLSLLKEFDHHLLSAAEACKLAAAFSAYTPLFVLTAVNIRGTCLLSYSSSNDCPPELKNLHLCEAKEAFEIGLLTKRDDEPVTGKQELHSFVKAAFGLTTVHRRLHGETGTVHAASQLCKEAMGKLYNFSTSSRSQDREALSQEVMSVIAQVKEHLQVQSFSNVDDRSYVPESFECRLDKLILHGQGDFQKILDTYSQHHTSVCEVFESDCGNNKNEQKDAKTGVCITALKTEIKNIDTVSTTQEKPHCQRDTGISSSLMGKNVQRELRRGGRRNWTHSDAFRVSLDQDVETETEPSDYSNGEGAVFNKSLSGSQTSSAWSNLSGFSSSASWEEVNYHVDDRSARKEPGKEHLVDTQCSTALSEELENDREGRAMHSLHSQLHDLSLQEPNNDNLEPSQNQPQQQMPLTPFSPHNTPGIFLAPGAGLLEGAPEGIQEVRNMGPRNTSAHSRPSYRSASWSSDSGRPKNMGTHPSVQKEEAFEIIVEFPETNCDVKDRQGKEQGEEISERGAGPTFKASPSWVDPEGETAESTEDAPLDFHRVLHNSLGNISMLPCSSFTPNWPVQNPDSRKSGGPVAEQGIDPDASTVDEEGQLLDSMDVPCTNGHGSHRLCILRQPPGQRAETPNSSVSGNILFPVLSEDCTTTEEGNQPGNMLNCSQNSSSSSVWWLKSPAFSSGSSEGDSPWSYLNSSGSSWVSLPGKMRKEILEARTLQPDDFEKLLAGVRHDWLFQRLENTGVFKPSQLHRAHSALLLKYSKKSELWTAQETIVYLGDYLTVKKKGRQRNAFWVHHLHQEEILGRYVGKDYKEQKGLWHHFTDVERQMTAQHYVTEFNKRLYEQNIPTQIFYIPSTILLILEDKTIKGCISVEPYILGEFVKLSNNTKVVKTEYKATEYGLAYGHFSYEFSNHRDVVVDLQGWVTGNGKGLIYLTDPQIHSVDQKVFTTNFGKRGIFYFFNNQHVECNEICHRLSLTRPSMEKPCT
Experiment: ALPK1 in vitro kinase assay (HTRF of TIFA phosphorylation)
Format: biochemical
Excerpt: In embodiments, a compound of Formula I, or a subembodiment described herein, is an inhibitor of ALPK1 as measured, for example, in an in vitro kinase assay, or an assay designed to measure the activation of downstream targets of ALPK1 pathway activation, for example NFkB transcriptional activation and the secretion of proinflammatory cytokines and chemokines, such as IL-8, which is also referred to as CXCL-8. […]
Could you please report measured IC50 for the items listed next?

Enquiry: What value of IC50 has been reported for the following compound? Cc1sc(NC(=O)NCc2ccc(N3CCNCC3)cc2)nc1C(C)(C)c1ccc(Br)cc1 [Example A030]
Return: 232 nM

Enquiry: Record: CC(C)(c1ccc(Br)cc1)c1csc(NC(=O)NCc2ccc(N3CCC(C(N)=O)CC3)cc2)n1 [Example A006]
Return: 104 nM

Enquiry: Could you do the same for C#CC(C)(c1ccc(Cl)cc1)c1csc(NC(=O)N2CCC(CO)CC2)n1 (stereo not drawn) [Example A264] , please?
Return: 1370 nM

Enquiry: Repeat for the following compound: CN1CCC(NC(=O)C2CCC(CNC(=O)Nc3nc(C(C)(C)c4ccc(Br)cc4)cs3)CC2)CC1 (stereo not drawn) [Example A100]
Return: 72 nM

Enquiry: Query C#C[C@](C)(c1ccc(OC)cc1)c1csc(NC(=O)NCCO)n1 [Example A169] next
Return: 23 nM

Enquiry: Do the same for COc1ccc(C(C)(C)c2csc(NC(=O)NCc3ccc(N4CCNC(C)C4)c(C(N)=O)c3)n2)cc1 (stereo not drawn) [Example A063] please
Return: 29 nM

Enquiry: Entry C#CC(CC)(c1ccc(Br)cc1)c1csc(NC(=O)NCCO)n1 (stereo not drawn) [Example A157] please
Return: 22 nM

Enquiry: Next compound up: COc1ccc(C(C)(C)c2csc(NC(=O)NC3CCCC(O)C3)n2)cc1 (stereo not drawn) [Example A123]
Return: 354 nM

Enquiry: And the next one, C#C[C@](C)(c1ccc(Cl)cc1)c1csc(NC(N)=O)n1 [Example A251] ?
Return: 81 nM

Enquiry: Can you handle CCC(C)(c1ccc(Br)cc1)c1csc(NC(=O)NCc2ccc(N3CCNCC3)cc2)n1 (stereo not drawn) [Example A039] next?
Return: 189 nM

Enquiry: Then C#CC(C)(c1ccc(Cl)cc1)c1csc(NC(=O)N(CCO)CCO)n1 (stereo not drawn) [Example A267] ?
Return: 171 nM

Enquiry: Thanks! And CC(C)(c1ccc(Br)cc1)c1csc(NC(=O)NCCCN)n1 [Example A061] ?
Return: 195 nM

Enquiry: Please do the same for COc1ccc(C(C)(C)c2csc(NC(=O)NCCCS(N)(=O)=O)n2)cc1 [Example A138] as well.
Return: 97 nM

Enquiry: Consider next the compound COc1ncc(CNC(=O)Nc2nc(C(C)(C)c3ccc(Br)cc3)cs2)cn1 [Example A080] in the same way.
Return: 172 nM

Enquiry: Try the compound O=C(Nc1nc(C2(c3ccc(Br)cc3)CCCC2)cs1)N1CC(c2ccc(N3CCNCC3)c(F)c2)C1 [Example A236]
Return: 13 nM

Enquiry: Same thing, different compound: CC(C)(c1ccc(Br)c(F)c1)c1csc(NC(=O)NCc2cnc(N3CCNCC3)nc2)n1 [Example A196]
Return: 76 nM

Enquiry: Same question, COc1ccc(C(C)(C)c2csc(NC(=O)NCc3cnc(N4CCC(O)C4)nc3)n2)cc1 (stereo not drawn) [Example A083] this time
Return: 111 nM

Enquiry: Please do the same for COc1ccc(C(C)(C)c2csc(NC(=O)NCCCS(=O)(=O)N3CCC(N)C3)n2)cc1 (stereo not drawn) [Example A229] as well.
Return: 169 nM

Enquiry: // same read-out, input: C#C[C@@](C)(c1ccc(F)cc1)c1csc(NC(=O)NCCO)n1 [Example A283]
Return: 550 nM

Enquiry: Another: C#C[C@](C)(c1ccc(Cl)cc1)c1csc(NC(=O)NC[C@@H](O)CO)n1 [Example A301]
Return: 354 nM

Enquiry: Cool, now COc1ccc(C(C)(C)c2csc(NC(=O)NCc3ccc(N4CCC(N)C4)cc3)n2)cc1 (stereo not drawn) [Example A184]
Return: 242 nM

Enquiry: Entry to check: C#C[C@](C)(c1ccc(Cl)cc1)c1csc(NC(=O)NCCO)n1 [Example A175]
Return: 32 nM

Enquiry: Next record, please: COc1ccc(C(C)(C)c2csc(NC(=O)NC(C)c3ccc(N4CCNCC4)nc3)n2)cc1 (stereo not drawn) [Example A001]
Return: 58 nM

Enquiry: Same read-out for CC(C)(c1ccc(Br)cc1)c1csc(NC(=O)NCc2ccc(OCCCN3CCNCC3)cc2)n1 [Example A035] ?
Return: 52 nM

Enquiry: Next entry: COc1ccc(C(C)(C)c2csc(NC(=O)NCCCN3CCOCC3)n2)cc1 [Example A134]
Return: 152 nM

Enquiry: Continue with [2H]C([2H])(O)CNC(=O)Nc1nc([C@](C)(C#C)c2ccc(Cl)cc2)cs1 (single isomer, unassigned) [Example A320]
Return: 44 nM

Enquiry: Same read-out for C#C[C@@](C)(c1ccc(Br)cc1)c1csc(NC(=O)NCCO)n1 [Example A160] ?
Return: 10 nM

Enquiry: Entry to check: CC(C)(c1ccc(Br)cc1)c1csc(NC(=O)NCc2cnc(N3CCC(N)C3)nc2)n1 (stereo not drawn) [Example A078]
Return: 8 nM

Enquiry: And then COc1ccc(C(C)(C)c2csc(NC(=O)NCc3ccc(NCCN)nc3)n2)cc1 [Example A202] , what is it?
Return: 34 nM

Enquiry: Queued: CC(C)(c1ccc(Br)cc1)c1csc(NC(=O)NCc2cncnc2)n1 [Example A004]
Return: 240 nM

Enquiry: Ok, now CC(C)(c1ccc(Br)cc1)c1csc(NC(=O)NCc2ccc(N3CCNCC3)nc2)n1 [Example A092]
Return: 20 nM

Enquiry: Would you kindly repeat that for C#C[C@](C)(c1ccc(F)cc1)c1csc(NC(=O)NCCO)n1 (stereo in doubt) [Example A282] ?
Return: 2150 nM

Enquiry: Would you kindly repeat that for C#CC(C)(c1ccc(Cl)cc1)c1csc(NC(=O)NCCO)n1 (stereo not drawn) [Example A174] ?
Return: 34 nM
